Source listed as patent US20200317776A1.

# Study System: T1, human TREM2 expressed on cells (human, UniProt Q9NZC2 19-230)
# T1 sequence: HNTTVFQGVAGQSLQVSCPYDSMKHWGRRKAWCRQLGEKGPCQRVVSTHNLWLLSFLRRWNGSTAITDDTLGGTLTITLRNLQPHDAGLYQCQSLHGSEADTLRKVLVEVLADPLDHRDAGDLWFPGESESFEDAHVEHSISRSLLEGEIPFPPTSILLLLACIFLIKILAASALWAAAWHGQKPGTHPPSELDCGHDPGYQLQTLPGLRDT
# Method: cell-based or functional assay
Observation Type: Mac viability (AUC)
Write the answer as a number in AUC, unit excluded.

{"columns": ["Binder", "Measurement Units", "Mac viability (AUC)"],
 "data": [
  ["AL2p-42 (antibody, V domains shown, Fab and IgG formats under one id) VH: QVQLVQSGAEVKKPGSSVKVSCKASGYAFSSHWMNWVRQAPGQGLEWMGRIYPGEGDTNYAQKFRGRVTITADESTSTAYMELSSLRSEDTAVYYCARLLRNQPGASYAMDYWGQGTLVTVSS VL: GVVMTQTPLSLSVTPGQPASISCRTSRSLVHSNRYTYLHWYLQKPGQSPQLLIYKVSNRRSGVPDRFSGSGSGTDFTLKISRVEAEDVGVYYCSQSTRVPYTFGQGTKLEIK", "AUC", 57900],
  ["AL2p-39 (antibody, V domains shown, Fab and IgG formats under one id) VH: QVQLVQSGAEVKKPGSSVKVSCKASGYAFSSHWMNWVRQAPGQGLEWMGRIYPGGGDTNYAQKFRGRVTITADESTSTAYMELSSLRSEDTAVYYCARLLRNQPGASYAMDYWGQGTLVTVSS VL: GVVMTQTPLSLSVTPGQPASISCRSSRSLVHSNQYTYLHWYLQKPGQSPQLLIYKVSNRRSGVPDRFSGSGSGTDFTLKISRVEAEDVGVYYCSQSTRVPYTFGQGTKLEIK", "AUC", 66900]
]}

Request: What measured Mac viability (AUC) goes with AL2p-55 (antibody, V domains shown, same VH/VL entries as AL2p-56; Fab and IgG formats under one id) VH: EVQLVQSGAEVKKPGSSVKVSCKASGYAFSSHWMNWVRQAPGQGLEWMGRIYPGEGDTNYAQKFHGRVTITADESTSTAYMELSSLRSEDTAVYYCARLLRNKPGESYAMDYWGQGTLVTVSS VL: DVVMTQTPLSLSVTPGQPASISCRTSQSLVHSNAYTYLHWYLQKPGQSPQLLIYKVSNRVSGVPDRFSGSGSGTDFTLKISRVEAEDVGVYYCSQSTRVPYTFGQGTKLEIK ?
Response: -5280
